Measured on: recombinant HA derived from Victoria lineage strain B/BNE/08 (B/Brisbane/60/2008) (influenza B virus B/Brisbane/60/2008)
Experimental details: ELISA on coated recombinant HA, unpurified IgG
Quantity kind: EC50 (µg/mL)
Entry rule: numbers only, all in µg/mL.

Prompt: Requested read-out: EC50. Entry: FBC-39 (antibody, V domains shown) VH: EVQLVVSGGGLVKPGGSLRLSCAASGLSFLNAWMSWVRQAPGKGLEWVGRIKSNTDGGTTDYAAPVKGRFSISRDDSKNMLFLHMSSLRTEDTAVYYCATDGPYSDDFRSGYAARYRYFGMDVWGQGTTVTVSS VL: DIQMTQSPSSVSASVGDRVTITCRASQDISTWLAWYQQKPGKAPKLLIYAASSLQSGVPSRFSGSGSGTDFTLTISSLQPEDFATYFCQQANSFPPTFGQGTKLEIK
Completion: 0.186
